Where do the numbers come from? From ChEMBL document CHEMBL5131436.

Target: Sigma non-opioid intracellular receptor 1 (Cavia porcellus, UniProt Q60492)
Sequence (Q60492 whole entry): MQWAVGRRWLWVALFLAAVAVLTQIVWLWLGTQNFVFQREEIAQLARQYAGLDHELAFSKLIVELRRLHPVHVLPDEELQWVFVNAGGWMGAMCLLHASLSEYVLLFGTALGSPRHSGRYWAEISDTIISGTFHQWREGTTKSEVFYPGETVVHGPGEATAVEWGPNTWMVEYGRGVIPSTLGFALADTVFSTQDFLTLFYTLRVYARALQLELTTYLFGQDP
recorded endpoint: Ki (nM)
Field format: number, assumed nM, no unit text.

Sigma non-opioid intracellular receptor 1 (Cavia porcellus, UniProt Q60492) assay, molecule CN1CCN(CCc2ccc(Cl)c(Cl)c2)CC1 , recorded Ki = 14

---

Assay: Induction of H2S release in PBS buffer incubated for 1 hrs in presence of Washington State Probe-1 by spectrofluorimeter assay
Type: functional
Below, each entry is listed alongside its reported Activity.
Answer shape: numeric part, then the unit.

Some molecules with recorded Activity:
NC(=S)c1ccc(C(=O)NC2CCN(Cc3ccccc3)CC2)cc1 | 38.4 µM
NC(=S)c1ccc(C(=O)N2CCN(Cc3ccccc3)CC2)cc1 | 46.7 µM
NC(=S)c1ccc(C(=O)OC(CCCN2CCC(O)(c3ccc(Cl)cc3)CC2)c2ccc(F)cc2)cc1 (stereo not given) | 51.7 µM
NC(=S)c1ccc(C(=O)O)cc1 | 34.4 µM

So, NC(=S)c1ccc(C(=O)OCCCCN2CCC(O)(c3ccc(Cl)cc3)CC2)cc1 ? Its Activity was 41.8 µM

---

Assay: Stability of compound in phosphate buffer at pH 7.4 assessed as half life by UHPLC-PDA analysis
Type: physicochemical
recorded endpoint: half-life (h)
Field format: number, assumed h, no unit text.

So, NC(=S)c1ccc(C(=O)NC2CCN(Cc3ccccc3)CC2)cc1 ? Its half-life was 1.55

---

Below, each entry is listed alongside its reported pKi.
Target: Sigma non-opioid intracellular receptor 1 (Cavia porcellus)
Test: biochemical
Value format note: pKi is -log10 of concentration (mol/L); just state the number.

NC(=S)c1ccc(C(=O)OC(CCCN2CCC(O)(c3ccc(Cl)cc3)CC2)c2ccc(F)cc2)cc1 (centres undefined) | 6.81

Sigma non-opioid intracellular receptor 1 (Cavia porcellus) assay, compound NC(=O)c1ccc(C(=O)OCCCCN2CCC(O)(c3ccc(Cl)cc3)CC2)cc1 , recorded pKi = 6.90

Sigma non-opioid intracellular receptor 1 (Cavia porcellus) assay, compound NC(=S)c1ccc(C(=O)N2CCN(Cc3ccccc3)CC2)cc1 , recorded pKi = 6.18

Sigma non-opioid intracellular receptor 1 (Cavia porcellus) assay, compound O=C(NC1CCN(Cc2ccccc2)CC1)c1ccc(F)cc1 , recorded pKi = 8.22

Sigma non-opioid intracellular receptor 1 (Cavia porcellus) assay, compound C[C@@H]1CCO[C@H]2Cn3cc(C(=O)NCc4ccc(F)cc4F)c(=O)c(O)c3C(=O)N12 [DOLUTEGRAVIR] , recorded pKi = 6.91

Sigma non-opioid intracellular receptor 1 (Cavia porcellus) assay, compound NC(=O)c1ccc(C(=O)OC(CCCN2CCC(O)(c3ccc(Cl)cc3)CC2)c2ccc(F)cc2)cc1 (centres undefined) , recorded pKi = 6.76

Sigma non-opioid intracellular receptor 1 (Cavia porcellus) assay, compound NC(=S)c1ccc(C(=O)OCCCCN2CCC(O)(c3ccc(Cl)cc3)CC2)cc1 , recorded pKi = 7.24

---

Molecular target: Sigma intracellular receptor 2 (Homo sapiens, UniProt Q5BJF2)
Sequence (Q5BJF2 whole entry): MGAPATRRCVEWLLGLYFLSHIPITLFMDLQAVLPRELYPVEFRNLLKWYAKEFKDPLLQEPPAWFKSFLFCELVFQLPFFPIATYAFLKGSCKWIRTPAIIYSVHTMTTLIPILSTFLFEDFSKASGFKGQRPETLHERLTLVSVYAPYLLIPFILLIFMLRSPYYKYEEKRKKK
Test: Displacement of [3H]-di-o-tolylguanidine from Sigma 2-receptor (unknown origin)
recorded endpoint: Ki (nM)
Field format: number, assumed nM, no unit text.

So, O=C(NC1CCN(Cc2ccccc2)CC1)c1ccc(F)cc1 ? Its Ki was 190

---

Below, each entry is listed alongside its reported pKi.
Target: Sigma intracellular receptor 2 (Rattus norvegicus, UniProt Q5U3Y7)
Sequence (Q5U3Y7 whole entry): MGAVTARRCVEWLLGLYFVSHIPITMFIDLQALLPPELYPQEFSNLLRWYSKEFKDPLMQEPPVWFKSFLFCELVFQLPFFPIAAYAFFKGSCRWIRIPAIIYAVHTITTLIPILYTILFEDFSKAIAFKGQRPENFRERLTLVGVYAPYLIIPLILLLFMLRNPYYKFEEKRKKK
Experiment: biochemical
Value format note: pKi is -log10 of concentration (mol/L); just state the number.

NC(=O)c1ccc(C(=O)OC(CCCN2CCC(O)(c3ccc(Cl)cc3)CC2)c2ccc(F)cc2)cc1 (stereo not drawn) | 6.21
C[C@@H]1CCO[C@H]2Cn3cc(C(=O)NCc4ccc(F)cc4F)c(=O)c(O)c3C(=O)N12 | 7.74
NC(=O)c1ccc(C(=O)OCCCCN2CCC(O)(c3ccc(Cl)cc3)CC2)cc1 | 6.03

So, NC(=S)c1ccc(C(=O)OC(CCCN2CCC(O)(c3ccc(Cl)cc3)CC2)c2ccc(F)cc2)cc1 (stereo not drawn) ? Its pKi was 6.51

So, NC(=S)c1ccc(C(=O)OCCCCN2CCC(O)(c3ccc(Cl)cc3)CC2)cc1 ? Its pKi was 6.58

---

Molecular target: Mu-type opioid receptor (Rattus norvegicus)
Sequence (P33535 whole entry): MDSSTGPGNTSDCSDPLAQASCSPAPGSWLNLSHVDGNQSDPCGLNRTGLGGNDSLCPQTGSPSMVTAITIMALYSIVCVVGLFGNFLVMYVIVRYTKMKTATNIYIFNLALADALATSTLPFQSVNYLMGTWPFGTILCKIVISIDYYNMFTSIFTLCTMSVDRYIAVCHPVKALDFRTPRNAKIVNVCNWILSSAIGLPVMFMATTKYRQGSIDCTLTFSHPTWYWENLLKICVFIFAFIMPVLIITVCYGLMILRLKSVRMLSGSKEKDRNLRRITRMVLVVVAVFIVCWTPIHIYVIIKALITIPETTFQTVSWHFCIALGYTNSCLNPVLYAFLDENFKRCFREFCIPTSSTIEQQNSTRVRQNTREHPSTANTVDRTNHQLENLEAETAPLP
Experiment: Displacement of [3H]-DAMGO from Sprague-Dawley rat brain membrane mu opioid receptor incubated for 45 mins by liquid scintillation counting analysis
Type: cell membranes
recorded endpoint: pKi
Value format note: pKi is -log10 of concentration (mol/L); just state the number.

NC(=O)c1ccc(C(=O)N2CCN(Cc3ccccc3)CC2)cc1 | 5.59

So, NC(=O)c1ccc(C(=O)OC(CCCN2CCC(O)(c3ccc(Cl)cc3)CC2)c2ccc(F)cc2)cc1 (configuration not stated) ? Its pKi was 6.09

So, NC(=S)c1ccc(C(=O)OC(CCCN2CCC(O)(c3ccc(Cl)cc3)CC2)c2ccc(F)cc2)cc1 (configuration not stated) ? Its pKi was 5.84

---

Assay: Aqueous solubility of compound at 5 mg measured for 24 hrs by UHPLC-PDA analysis
Format: physicochemical
Conditions: water
recorded endpoint: solubility at 24 h (µM)
Field format: number, assumed µM, no unit text.

So, NC(=S)c1ccc(C(=O)NC2CCN(Cc3ccccc3)CC2)cc1 ? Its solubility at 24 h was 1.25

---

Experiment: Stability of compound in saline solution assessed as half life by UHPLC-PDA analysis
Type: physicochemical
recorded endpoint: half-life (h)
Field format: number, assumed h, no unit text.

So, NC(=S)c1ccc(C(=O)NC2CCN(Cc3ccccc3)CC2)cc1 ? Its half-life was 4.17

---

Molecular target: Sigma intracellular receptor 2 (Rattus norvegicus)
Assay: biochemical
recorded endpoint: Ki

NC(=O)c1ccc(C(=O)O)cc1 | > 10 µM
NC(=S)c1ccc(C(=O)N2CCN(Cc3ccccc3)CC2)cc1 | > 10 µM

So, NC(=O)c1ccc(C(=O)N2CCN(Cc3ccccc3)CC2)cc1 ? Its Ki was > 10 µM
